experiment: Acute toxicity in rat; settings: in vivo, intravenous, read-out: NOEL (No Observable Effect Level)
Measurement type: NOAEL (mg/kg)
Number only, in mg/kg; omit the unit.

## Input I would be grateful if you could share the reported NOAEL for Cc1cc2nc3c4ccccc4n(CCN(C)C)c3nc2cc1C .
## Output 12.5

====

experiment: Acute toxicity in rat; conditions: in vivo, po
Measurement type: LD50

## Input Please report the recorded LD50 for Cc1cc2nc3c4ccccc4n(CCN(C)C)c3nc2cc1C .
## Output > 800 mg/kg

====

experiment: Acute toxicity in rat; conditions: in vivo, iv
Measurement type: LD50

## Input Can you look up the measured LD50 of Cc1cc2nc3c4ccccc4n(CCN(C)C)c3nc2cc1C [B-220] for me?
## Output > 100 mg/kg
